# System Name: SARS-CoV-2 spike protein S on live virus, Alpha variant (SARS-CoV-2 (Alpha variant), UniProt P0DTC2 14-1273)
# Test Description: cell-based or functional assay
# if value of LVNA IC50 reaches 0.6 nM, tag MET; if it stays below, tag NOT MET

Does LVNA IC50 meet or surpass 0.6 nM for NRCoV2-18 VHH-Fc (Fc fusion, bivalent VHH-Fc) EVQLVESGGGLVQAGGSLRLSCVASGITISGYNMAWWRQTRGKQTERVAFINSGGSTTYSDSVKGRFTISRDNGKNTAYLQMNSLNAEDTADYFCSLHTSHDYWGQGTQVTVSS ?
MET

Does LVNA IC50 meet or surpass 0.6 nM for NRCoV2-10 VHH-Fc (Fc fusion, bivalent VHH-Fc) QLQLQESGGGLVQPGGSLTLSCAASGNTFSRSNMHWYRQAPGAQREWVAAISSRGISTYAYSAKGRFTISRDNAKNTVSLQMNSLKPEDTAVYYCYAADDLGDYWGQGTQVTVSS ?
NOT MET

Does LVNA IC50 meet or surpass 0.6 nM for NRCoV2-15 VHH-Fc (Fc fusion, bivalent VHH-Fc) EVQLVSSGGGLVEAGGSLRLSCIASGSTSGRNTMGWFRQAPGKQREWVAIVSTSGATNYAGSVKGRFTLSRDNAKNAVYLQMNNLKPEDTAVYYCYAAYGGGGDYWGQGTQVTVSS ?
NOT MET

Does LVNA IC50 meet or surpass 0.6 nM for NRCoV2-11 VHH-Fc (Fc fusion, bivalent VHH-Fc) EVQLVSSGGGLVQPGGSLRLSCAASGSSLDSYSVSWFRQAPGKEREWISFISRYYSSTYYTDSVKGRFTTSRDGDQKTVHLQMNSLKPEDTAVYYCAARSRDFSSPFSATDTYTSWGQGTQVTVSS ?
MET

Does LVNA IC50 meet or surpass 0.6 nM for NRCoV2-02 VHH-Fc (Fc fusion, bivalent VHH-Fc) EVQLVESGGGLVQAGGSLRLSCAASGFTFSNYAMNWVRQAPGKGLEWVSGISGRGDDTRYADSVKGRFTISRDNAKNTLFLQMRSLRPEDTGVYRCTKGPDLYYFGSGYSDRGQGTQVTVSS ?
NOT MET
